Where do the numbers come from? From PubChem BioAssay (NCI).

system: SNB-75 CNS; experiment: NCI tumour cell line growth inhibition, 48 h
Examples of compounds with documented TGI follow.

1. O=C(c1ccco1)N(C(=S)OC12CC3CC(CC(C3)C1)C2)c1ccccc1 :: > 100 µM

Specify the recorded TGI for CCN(CC)c1ccc2cc(-c3nc4ccccc4c(=O)[nH]3)c(=N)oc2c1 , system: SNB-75 CNS. > 100 µM

Report the value of TGI obtained on SNB-75 CNS for COC(=O)/C(=N\NC(N)=S)C(C#N)c1ccccc1 (configuration not stated) . > 100 µM

Write down the reported TGI (system: SNB-75 CNS) of CC(=O)OC1CC2C(=O)C(=O)C1(C)C2(C)C (configuration not stated) > 100 µM

With SNB-75 CNS as the test system, provide measured TGI for this compound: COc1cc([N+](=O)[O-])c2ncccc2c1[N+](=O)[O-] 18 µM

Tell me TGI of O=C(Nc1cccc(NC(=O)c2cc(=O)c3ccccc3o2)n1)c1cc(=O)c2ccccc2o1 when tested on SNB-75 CNS. > 100 µM

Enter recorded TGI with SNB-75 CNS for C=C(C)[C@@H]1CC[C@]2(C(=O)O)CC[C@]3(C)[C@H](CCC4[C@@]5(C)CC[C@H](C(=O)/C=C/c6ccc(O)c(O)c6)C(C)(C)[C@@H]5CC[C@]43C)[C@@H]12 (some centres not stated) here. > 100 µM

Lab note: SNB-75 CNS assay, enter TGI for COC(=O)[C@@H]1CN(C(=O)c2ccccc2)C(=O)N1C(=O)OCc1ccccc1 here > 100 µM

Report TGI under test system SNB-75 CNS for NCCC1CN(C(=O)OCc2ccccc2)c2ccccc21 (configuration not stated) . 43.3 µM

Retrieve TGI on SNB-75 CNS; query FC1OC2OC1C(OCc1ccccc1)C(OCc1ccccc1)C2OCc1ccccc1 (configuration not stated) > 100 µM

Look up and report measured TGI (SNB-75 CNS) for the following compound: O=C(NCCCCCCCNC(=O)OCc1ccc2c(Cl)cc(Cl)c(O)c2n1)OCc1ccc2c(Cl)cc(Cl)c(O)c2n1 2.43 µM

Fill in TGI for CCOC(=O)C(=O)C(=O)NN(C)C1=NCCN1 tested with SNB-75 CNS. > 100 µM

* * *

Quick reference: TGI of the listed items.
system: COLO 205 colon; test: NCI tumour cell line growth inhibition, 48 h

Some molecules with known TGI results, for comparison:
1) COC(=O)c1c(C)nc(C)c(NO)c1-c1ccccc1C(F)(F)F :: 70.2 µM
2) COC(=O)c1c(-c2ccc(Cl)cc2)cc2c3ccccc3n(C)c2c1C(=O)OC :: > 100 µM
3) CC(=O)Nc1cc(Nc2cc(=O)[nH]c(=O)[nH]2)ccc1C :: > 100 µM
4) O=C(Cc1csc2nc(-c3ccc(Br)cc3)cn12)N/N=C/c1ccc(O)cc1 :: > 100 µM
5) CSc1ccc(C(=O)C(=O)c2ccc(SC)s2)s1 :: > 10 µM
6) N[C@@H]1CCCC[C@@H]1N.O=P([O-])([O-])CN(CP(=O)([O-])[O-])CP(=O)([O-])[O-].[Pt+2] :: > 100 µM

Name the recorded TGI of O=S(=O)(c1ccc(O)c(C=Nc2ccc(Cl)cc2)c1)c1ccc(O)c(C=Nc2ccc(Cl)cc2)c1 , assay system COLO 205 colon. > 100 µM

Report value only: TGI, COLO 205 colon, C/C=C1\C(=O)OC2CCN3CCC(COC(=O)C(C)(O)C(C)C1O)C23 (stereo not given) > 100 µM

Param request: TGI | system COLO 205 colon | item COc1ccc(OC)c2c3c(ccc12)C(c1ccccc1)OC3=O (stereo not given) > 100 µM

Report its TGI with COLO 205 colon as the test system: N#Cc1nc(C#N)n(C(=O)c2ccccc2)c1NC(=O)c1ccccc1 > 100 µM

* * *

Reported TGI values for a set of compounds
system: UO-31 renal; assay: NCI tumour cell line growth inhibition, 48 h

Example results:
1. COc1ccc(CCN2CCc3c(C)c(C#N)c4nc5ccccc5n4c32)cc1OC :: > 100 µM
2. O=C(NCCCCCCCNC(=O)OCc1ccc2c(Cl)cc(Cl)c(O)c2n1)OCc1ccc2c(Cl)cc(Cl)c(O)c2n1 :: 1.29 µM
3. Cc1ccccc1OC(C)C(=O)NN1C(=O)CC(=O)N(c2ccccc2)C1=S (stereo unspecified) :: > 100 µM

# return TGI for CCCCCCCCCCCCCc1nn[nH]n1 , test system: UO-31 renal 29.5 µM

# return TGI of C/C(CC(=O)N(C(C)C)C(C)C)=N\NC(=O)c1ccncc1 (system: UO-31 renal) > 100 µM

Provide the reported TGI (system: UO-31 renal) for CCOC(=O)C1(C(F)(F)F)N=C(CC)OC(N2CCOCC2)=N1 (stereo unspecified) > 100 µM

* * *

tested on: A498 renal; experiment: NCI tumour cell line growth inhibition, 48 h
quantity-measured: TGI

Guide cases for TGI, answers given:
1. CCCCCCCCCCCCCCCCOC(=O)c1cc(O)cc(C(=O)OCCCCCCCCCCCCCCCC)c1 :: > 100 µM
2. C#CCC1(C(=O)OCC)C(=O)c2ccccc2N(C)C1=O (centres undefined) :: > 100 µM
3. Cc1ccc(C(C)C)cc1NC(=O)Nc1ccc([N+](=O)[O-])cc1 :: 4.45 µM

Tell us which TGI value is on record for CN1C(=O)C(O)CC1c1cccc(C(F)(F)F)c1 (centres undefined) > 100 µM

For the compound COC(=O)/C(=N\NC(N)=S)C(C#N)c1ccccc1 (centres undefined) , give its reported TGI. > 100 µM

Find the measured TGI of C[C@]12CC[C@H](OC3CCCCO3)CC1=CC[C@@H]1C2CC[C@]2(C)/C(=N/O)CCC12 (some centres undefined) and report it. > 100 µM

* * *

tested on: OVCAR-4 ovarian; assay: NCI tumour cell line growth inhibition, 48 h
quantity-measured: TGI (µM)
API: value field is a number in µM; no unit string.

1) COc1ccc2nc3ccccc3c(NCCCCN(C)CCCl)c2c1 :: 0.843

Next compound, TGI to be filled in.
Hello, please tell me recorded TGI for this one: CC/C=C\C/C=C\C[C@H](O)C/C=C1/C(=O)C=C[C@@H]1C/C=C\CCCC(=O)OC 20.2

* * *

system: RPMI-8226 leukemia; assay: NCI tumour cell line growth inhibition, 48 h
quantity-measured: TGI

Completed entries (count: 5):
1) Cc1csc(NC(=NCCN2CCOCC2)Nc2nc(C)cs2)n1 :: > 100 µM
2) O=C1C=CC(=O)c2c(O)c(N3CCN(CCOCCO)CC3)c(Cl)c(O)c21 :: 1.01 µM [middle of 4 runs]
3) COC(=O)/C(=N/NC(N)=O)C(C(=O)OC)C(=O)C(=O)Nc1ccc(Cl)cc1 (configuration not stated) :: > 100 µM
4) CC(=O)Oc1ccc(/C=N/NC(N)=S)nc1 :: > 100 µM
5) C[N+](C)(C)CC1CCCC(C[N+](C)(C)C)C1O (configuration not stated) :: > 100 µM

Please report TGI for the following compound: O=C1c2ccccc2C(=O)c2nc3ccc(Cl)cc3cc21 > 100 µM

Give TGI for CC(NC(=O)c1ccccc1)(C(=O)O)C(=O)O > 100 µM

* * *

compounds and their reported TGI
test system: NCI-H226 lung; test: NCI tumour cell line growth inhibition, 48 h
Form entry: value (µM) — number only.

The cases that follow already have their TGI on record.
1) Cc1ccc(S(=O)(=O)N(CC(O)COc2ccccc2)c2ccc(F)cc2F)cc1 (stereo not given) :: 41.9
2) Cc1ccc(C(C)C)cc1NC(=O)Nc1ccc([N+](=O)[O-])cc1 :: 6.14

Okay, now this compound:
Look up NCI-H226 lung data: TGI of C=[CH][Sn]([CH]=C)([O]c1cccc2cccnc12)[O]c1cccc2cccnc12 , then report it. 9.47

* * *

test system: TK-10 renal; assay: NCI tumour cell line growth inhibition, 48 h
quantity-measured: TGI

1. CCOc1cc(-c2ccc[nH]2)[nH]c1/C=C1\N=C(C)C(C(=O)OC)=C1C :: 1.5 µM

Tell me TGI reported for N#CC1C=Cc2ccccc2N1C(=O)Oc1ccccc1 (configuration not stated) > 100 µM

Give recorded TGI. C=C1C(=O)O[C@H]2[C@H]3O[C@@H](C[C@@H]12)[C@](C)(O)CC[C@@H]1O[C@@]1(C)CCC[C@H]3C 32.6 µM

Determine from records and report TGI for CCOP(=O)(Nc1ccc2oc(=O)c3ccccc3c2c1)OCC > 100 µM

# return recorded TGI for input S=C(NCc1ccccc1)N/N=C/c1ccccn1 > 100 µM

Let me know recorded TGI for O=c1cc(-c2ccccn2)[nH]c2ccc(Cl)cc12 , thanks. > 100 µM

Give the value of TGI reported for the following: CC1(C2CCC3(C)OC3C2)CO1 (configuration not stated) > 100 µM

Look up TGI of Nc1nc(Cl)cc(NCC2(O)CCCC2)n1 and report it. > 100 µM

State, in one line, measured TGI of O=C(c1ccco1)N(C(=S)OC12CC3CC(CC(C3)C1)C2)c1ccccc1 > 100 µM

State, in one line, measured TGI of OCNCCNc1nc2ccccc2c2[nH]c3ccccc3c12 9.89 µM

State its TGI for this molecule: Cc1cc(Cl)ccc1NS(=O)(=O)c1ccc(-c2cnc(C3CC3)o2)cc1 31.1 µM

Please look at this molecule and report its TGI: Cc1ccc(S(=O)(=O)n2cc(C#N)c(C#N)c2)cc1 > 100 µM
